Target: Recombinant human ASGPR protein (Homo sapiens, UniProt P07306)
Sequence (P07306 1-291): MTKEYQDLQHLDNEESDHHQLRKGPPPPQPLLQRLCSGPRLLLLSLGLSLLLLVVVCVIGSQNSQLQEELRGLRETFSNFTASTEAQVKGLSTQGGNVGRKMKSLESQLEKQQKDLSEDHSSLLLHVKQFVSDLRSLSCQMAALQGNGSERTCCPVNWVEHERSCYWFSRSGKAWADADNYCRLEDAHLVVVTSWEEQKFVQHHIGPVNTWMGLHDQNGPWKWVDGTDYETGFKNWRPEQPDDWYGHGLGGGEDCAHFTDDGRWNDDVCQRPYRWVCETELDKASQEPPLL
Assay: GalNAc-PAA human ASGPR1 competition binding assay
Details: competition with GalNAc-PAA-biotin 500 ng/ml
pKi: −log10 of the molar value.
parameter: pKi

compound | pKi
CCC(=O)NC1COC(COCCOCCOCCOCCn2cc(COCC(COCc3cn(CCOCCOCCOCCOCC4OCC(NC(=O)CC)C(O)C4O)nn3)(COCc3cn(CCOCCOCCOCCOCC4OCC(NC(=O)CC)C(O)C4O)nn3)NC(=O)CNC(=O)CCC(=O)N3CCN(Cc4ccc(-c5c[nH]c6ccncc56)c(OCCc5ccc(-c6cccc7ccncc67)cc5)c4)CC3)nn2)C(O)C1O (centres unmarked) [Compound 104] | 6.70
CCC(=O)N[C@H]1CO[C@H](COCCOCCOCCOCCn2cc(COCCNC(=O)CNC(=O)CCOCCOCCC(=O)N3CCN(Cc4ccc(-c5c[nH]c6ccncc56)c(OCCc5ccc(-c6cccc7ccncc67)cc5)c4)CC3)nn2)[C@H](O)[C@@H]1O [Compound 107] | 6.10
CCC(=O)NC1COC(COCCOCCOCCOCCn2cc(COCC(COCc3cn(CCOCCOCCOCCOCC4OCC(NC(=O)CC)C(O)C4O)nn3)(COCc3cn(CCOCCOCCOCCOCC4OCC(NC(=O)CC)C(O)C4O)nn3)NC(=O)CNC(=O)CCOCCOCCC(=O)N3CCN(Cc4ccc(-c5c[nH]c6ccncc56)c(OCCc5ccc(-c6cccc7ccncc67)cc5)c4)CC3)nn2)C(O)C1O (centres unmarked) [Compound 103] | 6.70

1: CCC(=O)NC1COC(COCCOCCOCCOCCn2cc(COCCNC(=O)CNC(=O)CCOCCOCCOCCOCCOCCOCCC(=O)N3CCN(Cc4ccc(-c5c[nH]c6ccncc56)c(OCCc5ccc(-c6cccc7ccncc67)cc5)c4)CC3)nn2)C(O)C1O (centres unmarked) [Compound 105]
2: CCC(=O)N[C@H]1CO[C@H](COCCOCCOCCOCCn2cc(COCCNC(=O)CNC(=O)CCC(=O)N3CCN(Cc4ccc(-c5c[nH]c6ccncc56)c(OCCc5ccc(-c6cccc7ccncc67)cc5)c4)CC3)nn2)[C@H](O)[C@@H]1O [Compound 106]
(Q) API: POST /compare with 1 and 2 ; response names the item with higher pKi. State your choice using its label.
(A) 1
